Items are presented alongside their recorded peptide exchange yield.
- assay_system: T1, HLA-A*01:01 (human)
- T1 construct: MHC class I monomer first loaded with a UV-sensitive peptide (not identified) that is cleaved by UV irradiation and exchanged for the tested peptide; captured on streptavidin plates, detected with anti-β2m; also called peptide-receptive MHC molecules
- protocol_summary: UV-ligand exchange, anti-b2m ELISA

// solved cases for peptide exchange yield follow
YADIHGDLL    50 to 75%
ATDMEGNLNY    50 to 75%
STDPNIVRK    50 to 75%
LCATVCGTEQY    20 to 50%
NDEIDKLTGY    > 75%

The recorded peptide exchange yield for `HAFESNNFIY` is 20 to 50%

The recorded peptide exchange yield for `SSDPKAVMF` is 20 to 50%

The recorded peptide exchange yield for `GIEMTYETY` is 20 to 50%

The recorded peptide exchange yield for `FPAPPAHWFY` is 20 to 50%

The recorded peptide exchange yield for `SIEIDHTQY` is 20 to 50%

The recorded peptide exchange yield for `DAVAPGREY` is 20 to 50%

The recorded peptide exchange yield for `ETSFSTSHY` is > 75%

The recorded peptide exchange yield for `EMEQQSQEY` is > 75%
